Listing of recorded TGI by entry.
system: HOP-92 NSCLC; assay: NCI tumour cell line growth inhibition, 48 h

{"columns": ["compound", "TGI"],
 "data": [
  ["CC(=O)C1C(=O)C(=O)N(c2cccc(C)c2C)C1=O (stereo not given)", "> 100 µM"],
  ["COc1cc(N(CCC#N)CCC#N)ccc1/C=C1\\SC(=S)NC1=O", "> 100 µM"],
  ["Cn1c2ccccc2c(=S)c2ccccc21", "> 100 µM"],
  ["C1=Cc2ccccc2Nc2ccccc21", "> 100 µM"],
  ["CCOc1c(Br)cc(C2C(C(=O)OC)=CN(C)C=C2C(=O)OC)cc1OC", "> 100 µM"]
]}
